inhibition listing for selected compounds.
Target Or System: Rac GTPase-activating protein 1 (Homo sapiens) (UniProt Q9H0H5)
Sequence (Q9H0H5 whole entry, looked up): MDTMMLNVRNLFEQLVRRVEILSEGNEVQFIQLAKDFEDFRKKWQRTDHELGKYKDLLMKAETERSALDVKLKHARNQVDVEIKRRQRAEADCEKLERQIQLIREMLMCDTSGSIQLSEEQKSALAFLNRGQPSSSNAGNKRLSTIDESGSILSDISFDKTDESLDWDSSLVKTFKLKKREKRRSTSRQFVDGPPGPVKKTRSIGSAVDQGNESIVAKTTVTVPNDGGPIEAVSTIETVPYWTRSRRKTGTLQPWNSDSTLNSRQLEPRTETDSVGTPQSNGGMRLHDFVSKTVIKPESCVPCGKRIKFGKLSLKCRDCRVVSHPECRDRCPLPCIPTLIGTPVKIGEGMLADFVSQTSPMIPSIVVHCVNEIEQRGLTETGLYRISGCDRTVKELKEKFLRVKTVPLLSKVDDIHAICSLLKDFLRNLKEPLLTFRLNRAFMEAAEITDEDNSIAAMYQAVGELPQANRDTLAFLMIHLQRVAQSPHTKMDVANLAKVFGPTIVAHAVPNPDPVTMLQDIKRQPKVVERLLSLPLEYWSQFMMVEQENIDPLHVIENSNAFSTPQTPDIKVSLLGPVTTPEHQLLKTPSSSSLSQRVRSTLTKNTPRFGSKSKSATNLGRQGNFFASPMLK
Assay Comment: blockers of MgcRacGAP-driven Rac1 GTP hydrolysis – biochemical, ADP Hunter fluorescence, primary and confirmatory, confirmation (AID 624330);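 note: fluorescence reports GDP produced by GAP-driven GTP hydrolysis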
Particulars: MgcRacGAP-stimulated Rac1 GTP hydrolysis, at 30 µM, hits give high values, GST-tagged Rac1 F28L mutant substrate
Hit rate of the full screen: of about 340,000 compounds, about 2,100 (0.62%) were called active. These entries were drawn from the full list. Entries with a potency or affinity are not part of this list.
Measurement Kind: inhibition

Compound | Target Or System | Reported Measurement
Cc1ccc(OCCNC(=O)C(C)SCC(=O)Nc2ccc(F)cc2)cc1 (configuration not stated) | Rac GTPase-activating protein 1 (Homo sapiens) (UniProt Q9H0H5) | 1.75% (inactive)
O=C1OC(c2ccc(F)cc2)=N/C1=C\c1ccc(Br)o1 | Rac GTPase-activating protein 1 (Homo sapiens) (UniProt Q9H0H5) | 12.2% (inactive)
Cc1ccc(C(=O)C[n+]2ccc(-c3nnc4n3CCC4)cc2)cc1 | Rac GTPase-activating protein 1 (Homo sapiens) (UniProt Q9H0H5) | -12.9% (inactive)
O=C1C=CC(=O)N1c1ccccn1 | Rac GTPase-activating protein 1 (Homo sapiens) (UniProt Q9H0H5) | 7.4% (inactive)
CCN(c1ccc(NC(=O)COC(=O)CCc2cc(OC)c(OC)c(OC)c2)cc1)C(C)C | Rac GTPase-activating protein 1 (Homo sapiens) (UniProt Q9H0H5) | 14.8% (inactive)
CC1Cc2ccccc2N1C(=S)Nc1ccc(S(N)(=O)=O)cc1 (configuration not stated) | Rac GTPase-activating protein 1 (Homo sapiens) (UniProt Q9H0H5) | 10.7% (inactive)
CC1(c2nnc(-c3cccc(Cl)c3)o2)CC(c2ccccc2F)=NO1 (configuration not stated) | Rac GTPase-activating protein 1 (Homo sapiens) (UniProt Q9H0H5) | 5.14% (inactive)
COc1ccc2c(c1)C(c1ccccc1)=NNC(c1ccco1)=N2 | Rac GTPase-activating protein 1 (Homo sapiens) (UniProt Q9H0H5) | 2.48% (inactive)
O=C1CCc2cc(S(=O)(=O)Nc3ccc(F)cc3)cc3c2N1CC3 | Rac GTPase-activating protein 1 (Homo sapiens) (UniProt Q9H0H5) | 6.87% (inactive)
COc1ccc(CCN(C(=O)C(F)(F)F)C(C(=O)NC2CCCCC2)c2ccc(C)s2)cc1OC (configuration not stated) | Rac GTPase-activating protein 1 (Homo sapiens) (UniProt Q9H0H5) | 4.06% (inactive)
CCc1nc2ccccc2c(C(=O)O)c1C | Rac GTPase-activating protein 1 (Homo sapiens) (UniProt Q9H0H5) | 1.89% (inactive)
C[C@H](CO)N1C[C@H](C)[C@@H](CN(C)C(=O)Nc2ccccc2)Oc2c(NS(=O)(=O)c3ccc(F)cc3)cccc2C1=O | Rac GTPase-activating protein 1 (Homo sapiens) (UniProt Q9H0H5) | 3.18% (inactive)
Cc1ccc(C)c(S(=O)(=O)NCC(=O)NCc2ccco2)c1 | Rac GTPase-activating protein 1 (Homo sapiens) (UniProt Q9H0H5) | 1.96% (inactive)
COc1ccc(N2C(=O)C3CC(C)=C(C)CC3C2=O)c(OC)c1 (configuration not stated) | Rac GTPase-activating protein 1 (Homo sapiens) (UniProt Q9H0H5) | 0.34% (inactive)
CC(NCc1ccc(S(N)(=O)=O)cc1)C(=O)N1CCc2ccccc21 (configuration not stated) | Rac GTPase-activating protein 1 (Homo sapiens) (UniProt Q9H0H5) | 16.2% (inactive)
CCc1c(C)nc(N2CCN(c3ccccc3)CC2)[nH]c1=O | Rac GTPase-activating protein 1 (Homo sapiens) (UniProt Q9H0H5) | -0.57% (inactive)
COc1ccccc1/C=C(/C(=O)OCC(=O)Nc1ccccc1C)c1ccccc1 | Rac GTPase-activating protein 1 (Homo sapiens) (UniProt Q9H0H5) | 8.5% (inactive)
COC(=O)C1=C(O)C(C(=O)OC)C(c2ccc(C)cc2)C(C#N)(C#N)C1c1ccc(C)cc1 (configuration not stated) | Rac GTPase-activating protein 1 (Homo sapiens) (UniProt Q9H0H5) | 6.45% (inactive)
Cc1ccc(-c2ccc(/C=N/NC(=O)Cc3nnc(N)s3)o2)cc1Cl | Rac GTPase-activating protein 1 (Homo sapiens) (UniProt Q9H0H5) | 7.23% (inactive)
COc1cc(N2C(=O)C=CC2=O)c(OC)cc1Cl | Rac GTPase-activating protein 1 (Homo sapiens) (UniProt Q9H0H5) | -11.4% (inactive)
Cc1ccc(-n2ncc3c2CC(C)(C)CC3NC(=O)c2c(C)noc2C)cc1 (configuration not stated) | Rac GTPase-activating protein 1 (Homo sapiens) (UniProt Q9H0H5) | 5.31% (inactive)
O=C(CC(c1ccccc1)c1ccccc1O)NCCN1CCOCC1 (configuration not stated) | Rac GTPase-activating protein 1 (Homo sapiens) (UniProt Q9H0H5) | -6.2% (inactive)

----------
Target Or System: Rac GTPase-activating protein 1 (Homo sapiens)
Assay Comment: blockers of MgcRacGAP-driven Rac1 GTP hydrolysis – biochemical, ADP Hunter fluorescence, primary and confirmatory, confirmation (AID 624330);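 note: fluorescence reports GDP produced by GAP-driven GTP hydrolysis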
Particulars: MgcRacGAP-stimulated Rac1 GTP hydrolysis, at 30 µM, hits give high values, GST-tagged Rac1 F28L mutant substrate
The whole screen tested about 340,000 compounds, of which about 2,100 (0.62%) were called active. Only a sample is shown. Measured potencies and affinities stand elsewhere.
Measurement Kind: inhibition (%)

Substance Smiles | Reported Measurement
C/C(=N/Nc1ccnc2cc(Cl)ccc12)c1ccc(O)cc1 | 18.6
COc1ccc(C(=O)c2ccc(OC)c(N)c2)cc1N | 4.59
COc1ccc(OC)c(N)c1 | 18.5
Cc1cc(N=Nc2c(O)c3ccccc3[nH]c2=O)ccc1N=Nc1ccc(C(=O)N(C)C)cc1 | 6.51
COc1ccc(N=Nc2ccc(N)nc2N)cc1 | 18.6
O=C(COc1ccc(Cl)cc1)NNC(=O)c1ccncc1 | 8.55
CC(C)C[C@H]1CN([C@@H](Cc2ccc(O)cc2)CN2CCC[C@@H]2CN2C(=O)C(=O)NC[C@@H]2Cc2ccccc2)C(=O)C(=O)N1CC1CCCCCC1 | 10.4
Cc1c(NC(=O)Nc2ccc(Cl)c(Cl)c2)sc(=S)n1C | -8.84
N#Cc1ccsc1NC(=O)C1=COCCO1 | 10.4
CCCCn1c(N)c(N(CC(C)C)C(=O)CCNC(=O)c2ccccc2Cl)c(=O)[nH]c1=O | 6.4
C/C(=N/Nc1ccnc2cc(Cl)ccc12)c1ccc(N)cc1 | 18.6
COc1ccc(N2CCN(CC(=O)Nc3ccc(C)cc3Br)CC2)cc1 | -18.4
O=C(CN1CCN(c2ccccc2)CC1)NC(=O)NCc1ccco1 | 5.31
Cc1ccc(S(=O)(=O)Nc2ccccc2N=Cc2ccc([N+](=O)[O-])cc2[N+](=O)[O-])cc1 | 4.67
COc1ccc(N2CCN(c3ccnc4cc(Cl)ccc34)CC2)cc1 | 13.2
O=C(COC(=O)Cc1c(Cl)cccc1Cl)Nc1ccccc1-c1ccccc1 | 1.56
S=c1[nH]nc(-c2ccco2)n1/N=C/c1cccc(Cl)c1 | 12

----------
Reported inhibition values for the following molecules.
Target Or System: Rac GTPase-activating protein 1 (Homo sapiens) (UniProt Q9H0H5)
Assay Comment: blockers of MgcRacGAP-driven Rac1 GTP hydrolysis – biochemical, ADP Hunter fluorescence, primary and confirmatory, confirmation (AID 624330);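 note: fluorescence reports GDP produced by GAP-driven GTP hydrolysis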
Particulars: MgcRacGAP-stimulated Rac1 GTP hydrolysis, at 30 µM, hits give high values, GST-tagged Rac1 F28L mutant substrate
Among all 340,000 compounds or so, about 2,100 (0.62%) were called active. Not all results are given here. Measured potencies and affinities stand elsewhere.

Molecule | inhibition, %
CC1(C)CC(=O)C(C(C2=C(O)CC(C)(C)CC2=O)c2ccco2)C(=O)C1 (stereo not drawn) | 29
CC1(C)CC(=O)C(C(C2=C(O)CC(C)(C)CC2=O)c2cccnc2)C(=O)C1 (stereo not drawn) | 12
O=C(Cc1ccc(Cl)cc1)c1ccc(O)cc1 | 9.32

----------
Target Or System: Rac GTPase-activating protein 1 (Homo sapiens) (UniProt Q9H0H5)
Assay Comment: blockers of MgcRacGAP-driven Rac1 GTP hydrolysis – biochemical, ADP Hunter fluorescence, primary and confirmatory, confirmation (AID 624330);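 note: fluorescence reports GDP produced by GAP-driven GTP hydrolysis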
Particulars: MgcRacGAP-stimulated Rac1 GTP hydrolysis, at 30 µM, hits give high values, GST-tagged Rac1 F28L mutant substrate
In all, about 340,000 compounds went through this assay and about 2,100 (0.62%) were called active. Only a sample is shown. Entries with a potency or affinity are not part of this list.
Binary classification by inhibition, with 6% as an inclusive lower bound for Yes; all other cases are No.

Substance Smiles | Target Or System | Label Class
O=C(c1c(Cl)cccc1Cl)N1CCCCCC1 | Rac GTPase-activating protein 1 (Homo sapiens) (UniProt Q9H0H5) | Yes
Cc1ccc(C2C(=O)c3ccccc3C2=O)cc1 | Rac GTPase-activating protein 1 (Homo sapiens) (UniProt Q9H0H5) | No
COc1cc(/C=N/NC(=O)c2c(C)nnn2-c2nonc2N)ccc1O | Rac GTPase-activating protein 1 (Homo sapiens) (UniProt Q9H0H5) | Yes
O=C(CSc1nc(-c2ccco2)cc(C(F)(F)F)n1)Nc1ccc2c(c1)OCO2 | Rac GTPase-activating protein 1 (Homo sapiens) (UniProt Q9H0H5) | No
COc1cc([C@@H]2OC[C@@H]3[C@H]2CO[C@@H]3c2ccc3c(c2)OCO3)ccc1O | Rac GTPase-activating protein 1 (Homo sapiens) (UniProt Q9H0H5) | Yes
CC(C)(C)NC(=S)NNC(=O)c1ccc2ncccc2c1 | Rac GTPase-activating protein 1 (Homo sapiens) (UniProt Q9H0H5) | No

Ref: PubChem BioAssay AID624330
